Experiment: Plasma pharmacokinetics, rising multiple-dose study
Type: in vivo, human
Conditions: male, human, plasma, oral, mean apparent t1/2 following the first dose, range over etamicastat 25–600 mg; plasma
value.kind: half-life

Item: Cl.NCCc1c[nH]c(=S)n1[C@H]1COc2c(F)cc(F)cc2C1 [Etamicastat] | half-life: 9 to 15 h
